Parameter: inhibition at 0.1 µM. Scope: all listed entries.
Biological target: human 5-HT1A receptor (Homo sapiens)
Construct: purchased Packard Bioscience; host or cells: CHO cells (membrane preparation)
Sequence (P08908 1-422): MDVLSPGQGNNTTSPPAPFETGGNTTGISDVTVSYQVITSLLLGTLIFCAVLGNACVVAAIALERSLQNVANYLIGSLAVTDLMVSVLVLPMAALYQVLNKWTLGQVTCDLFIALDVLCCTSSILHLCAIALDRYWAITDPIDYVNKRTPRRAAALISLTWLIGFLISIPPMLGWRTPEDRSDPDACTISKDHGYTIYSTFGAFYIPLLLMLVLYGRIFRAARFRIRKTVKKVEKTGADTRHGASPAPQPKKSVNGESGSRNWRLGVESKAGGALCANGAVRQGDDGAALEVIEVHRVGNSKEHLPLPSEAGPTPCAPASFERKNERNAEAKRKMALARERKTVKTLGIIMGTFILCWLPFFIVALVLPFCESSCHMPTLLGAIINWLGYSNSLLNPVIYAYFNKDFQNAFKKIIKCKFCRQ
Experiment: Affinity measurement of the compounds to human 5-HT1A receptor (in vitro), [3H]8-OH-DPAT binding
Conditions: test compound 100 nmols/L; [3H]8-OH-DPAT 0.25 nmols/L; CHO cell membrane expressing human 5-HT1A receptor; read-out: Percent Inhibition (%) on Each Receptor's Binding at 10^−7M, 5-HT1A
readout: inhibition at 0.1 µM (%)

[[record]]
smiles_input = "c1cc2ccoc2c(N2CCN3CCC[C@@H]3C2)n1"
numeric_value = 98.9

[[record]]
smiles_input = "Cn1c(SCCCN2CCN(c3ccc4ccccc4n3)CC2)nc2ccccc2c1=O"
numeric_value = 74.7

[[record]]
smiles_input = "Cc1sc2nc(CCCCN3CCN(c4ccc5ccccc5n4)CC3)n(N)c(=O)c2c1C"
numeric_value = 98

[[record]]
smiles_input = "c1ccc(CO[C@@H]2C[C@H]3CN(c4nccc5ccsc45)CCN3C2)cc1"
numeric_value = 70.6

